Biological target: T1, human BDCA2 (human, UniProt Q8WTT0 1-213)
T1 construct: whole, on cells; also called hBDCA2; Blood dendritic cell antigen 2
T1 sequence (looked up): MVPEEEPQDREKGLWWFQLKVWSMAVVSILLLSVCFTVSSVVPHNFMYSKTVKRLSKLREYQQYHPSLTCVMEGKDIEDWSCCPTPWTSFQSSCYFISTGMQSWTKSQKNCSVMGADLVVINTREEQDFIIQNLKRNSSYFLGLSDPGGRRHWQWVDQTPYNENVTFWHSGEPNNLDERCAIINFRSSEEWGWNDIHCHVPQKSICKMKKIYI
Assay: FACS, CHOK1-humanBDCA2 cells
Recorded pEC50 for the following binders
Remember the convention: pEC50 equals -log10 of concentration in molar.

>>> measured_result("mab033c (antibody, V domains shown) VH: EVQMVESGGDLVKPGDSLKLSCAASGFTFRSYGMSWVRQTPDKRLEWVATISSGDSYTYYPDSVKGRFTISRDNAKNTLYLQMSSLKSEDTALYYCARQIYYDYAYYFDFWGQGTTLTVSS VL: DIVLTQSPASLAVSLGQRATISCRASESVSFRTSHLMHWYQQKPGQPPKLLIYGASNLESGVPARFSGSGSETDFTLNIHPVEEEDAAAYFCQQSIEDPPTFGGGTKLEIK")
9.59

Next item in the queue.
Fill in reported pEC50 for this entry: Hu033-16 (antibody, IgG1, V domains shown, Humanized IgG1; also called Hu033-16(BM4)) VH: EVQLVESGGGLVKPGGSLRLSCAASGFTFRSYGMSWVRQAPGKRLEWVSTISSGDSYTYYPDSVKGRFTISRDNAKNSLYLQMNSLRAEDTAVYYCARQIYYDYAYYFDFWGQGTTVTVSS VL: EIVLTQSPATLSLSPGERATLSCRASESVSFRTSHLMHWYQQKPGQAPRLLIYGASNLESGIPARFSGSGSETDFTLTISRLEPEDFAVYFCQQSIEDPPTFGGGTKVEIK
9.20
